- study.system: T1, recombinant human EGFR extracellular domain with 6xHis (human, UniProt P00533 25-645)
- T1 construct: In-house produced; also called 6xHis EGFR ECD; soluble human EGFR ECD; not shown: 6xHis tag
- test.description: SPR (BIAcore 2000); IgG captured on anti-human Fc, soluble monovalent EGFR ECD injected
parameter.measured: koff (s⁻¹)
Numbers only, in s⁻¹.

binder	koff / s⁻¹
antibody 1320 (antibody, human IgG1, kappa, V domains shown, Chimeric IgG1 kappa) VH: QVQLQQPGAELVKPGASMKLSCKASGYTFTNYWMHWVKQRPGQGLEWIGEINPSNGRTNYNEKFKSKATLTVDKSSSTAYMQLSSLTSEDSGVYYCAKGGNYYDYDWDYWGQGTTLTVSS VL: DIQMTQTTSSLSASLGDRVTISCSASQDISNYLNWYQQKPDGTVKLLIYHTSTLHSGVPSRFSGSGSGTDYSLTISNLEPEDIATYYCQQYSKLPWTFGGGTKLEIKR	0.0028

Switching to the query record.
Q) Please supply the value of reported koff for the item antibody 1254 (antibody, human IgG1, kappa, V domains shown, Chimeric IgG1 kappa; also called mAb 1254) VH: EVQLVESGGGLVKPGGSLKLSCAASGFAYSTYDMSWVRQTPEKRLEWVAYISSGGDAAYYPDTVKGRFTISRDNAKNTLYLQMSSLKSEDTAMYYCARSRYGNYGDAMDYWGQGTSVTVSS VL: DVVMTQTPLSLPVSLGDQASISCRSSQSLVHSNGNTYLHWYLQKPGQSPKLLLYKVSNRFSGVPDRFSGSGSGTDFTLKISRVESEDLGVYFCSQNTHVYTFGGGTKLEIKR
A) 0.001
